TARGET_OR_TEST_SYSTEM: IRAK4 (Homo sapiens)
Construct: endogenous in cells; host or cells: OCI-LY10
Sequence (Q9NWZ3 1-460): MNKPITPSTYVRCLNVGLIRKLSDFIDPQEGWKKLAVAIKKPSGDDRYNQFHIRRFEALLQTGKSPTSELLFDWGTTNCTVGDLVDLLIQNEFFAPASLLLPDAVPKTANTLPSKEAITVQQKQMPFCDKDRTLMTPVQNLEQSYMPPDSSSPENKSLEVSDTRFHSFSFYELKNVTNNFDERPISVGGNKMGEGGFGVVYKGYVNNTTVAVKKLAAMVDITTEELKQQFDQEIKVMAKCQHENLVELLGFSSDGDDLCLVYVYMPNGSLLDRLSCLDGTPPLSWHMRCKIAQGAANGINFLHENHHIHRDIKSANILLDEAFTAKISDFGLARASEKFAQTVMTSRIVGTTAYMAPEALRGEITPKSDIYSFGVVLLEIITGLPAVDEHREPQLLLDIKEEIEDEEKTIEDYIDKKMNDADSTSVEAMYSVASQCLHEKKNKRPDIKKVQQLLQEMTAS
EXPERIMENT_SUMMARY: IRAK4 MSD Degradation in OCI-LY10
Type: cell-based
CONDITION_DETAILS: OCI-LY10 cells, Meso Scale Discovery, incubated 4 to 24 hours
Procedure: Degradation of IRAK4 in OCI-LY10 was quantitatively measured using Meso Scale Discovery technology. OCI-LY10 cells were seeded in 96-well plates (Corning 3799) with a density of 300,000 cells per well in 100 μL fresh media. […] The assay plates were then incubated at room temperature for 1 hour, washed 3 times with 150 μL/well TBST buffer, and 150 μL/well MSD reading buffer (Meso Scale Discovery catalog number R92TC-2) was added. […]
REPORTED_ENDPOINT: DC50

// known answers, use as guide
COc1cc2nn([C@H]3CC[C@H](CN(C)[C@H]4CC[C@@H](c5cccc6c5n(C)c(=O)n6C5CCC(=O)NC5=O)CC4)CC3)cc2cc1NC(=O)c1cccc(C(F)(F)F)n1 (stereo partly shown) :: < 10 nM
CC(C)(O)c1cc2nc([C@H]3CC[C@H](C(=O)N4CCC(CCNc5cccc6c5C(=O)N(C5CCC(=O)NC5=O)C6=O)CC4)CC3)sc2cc1NC(=O)c1cccc(C(F)(F)F)n1 (stereo partly shown) :: 50 to 100 nM
COc1cc2nn([C@H]3CC[C@H](CN4CCC(c5cccc6c5n(C)c(=O)n6C5CCC(=O)NC5=O)CC4)CC3)cc2cc1NC(=O)c1cncc(C#N)c1 (stereo partly shown) :: < 10 nM
Cn1c(=O)n(C2CCC(=O)NC2=O)c2cccc(C3CCN(C[C@H]4CC[C@H](n5cc6cc(NC(=O)c7cnn8cccnc78)c(F)cc6n5)CC4)CC3)c21 (stereo partly shown) :: < 10 nM
CC(C)(O)c1cc2nc([C@H]3CC[C@H](CN4CC5(CC(CCNc6cccc7c6C(=O)N(C6CCC(=O)NC6=O)C7=O)C5)C4)CC3)cn2cc1NC(=O)c1cccc(C(F)(F)F)n1 (stereo partly shown) :: 10 to 50 nM
CC(C)(O)c1cc2nc([C@H]3CC[C@H](C(=O)N4CCN(CCCNc5cccc6c5C(=O)N(C5CCC(=O)NC5=O)C6=O)CC4)CC3)sc2cc1NC(=O)c1cccc(C(F)(F)F)n1 (stereo partly shown) :: < 10 nM

# map each compound to its DC50
1. CC(C)Nc1cc(-n2ccc3cc(C#N)cnc32)ncc1C(=O)NC[C@H]1CC[C@H](CN2CCC(c3cccc4c3n(C)c(=O)n4C3CCC(=O)NC3=O)CC2)CC1 (stereo partly shown)
2. Cc1nc(C(=O)Nc2cc3cn([C@H]4CC[C@H](CN5CCC(c6cccc7c6n(C)c(=O)n7C6CCC(=O)N(C)C6=O)CC5)CC4)nc3cc2C(C)(C)O)co1 (stereo partly shown)
3. CC(C)Nc1c(C(=O)N[C@H]2CC[C@H](CN3CCC(c4cccc5c4n(C)c(=O)n5C4CCC(=O)NC4=O)CC3)CC2)cnc2sc(-c3cncs3)cc12 (stereo partly shown)
4. COc1cc2nn([C@H]3C[C@H](CN4CCC(c5c(C)ccc6c5n(C)c(=O)n6C5CCC(=O)NC5=O)CC4)C3)cc2cc1NC(=O)c1cccc(C(F)(F)F)n1 (stereo partly shown)

**A:**
50 to 100 nM
> 200 nM
< 10 nM
< 10 nM

# map each compound to its DC50
1. COc1cc2nn([C@H]3CC[C@@H](CN4CC5(CC(CCNc6cccc7c6C(=O)N(C6CCC(=O)NC6=O)C7=O)C5)C4)CC3)cc2cc1NC(=O)c1cccc(C(C)(F)F)n1 (stereo partly shown)
2. COc1cc2nc([C@H]3CC[C@H](CN(C)CCCCNc4cccc5c4C(=O)N(C4CCC(=O)NC4=O)C5=O)CC3)sc2cc1NC(=O)c1cccc(C#N)n1 (stereo partly shown)
3. Cn1c(=O)n(C2CCC(=O)NC2=O)c2cccc(C3CCN(C[C@H]4CC[C@H](n5cc6cc(NC(=O)c7cccc(C(F)(F)F)c7F)ccc6n5)CC4)CC3)c21 (stereo partly shown)
4. Cc1cc2nn([C@H]3CC[C@H](CN4CCC(c5cccc6c5n(C)c(=O)n6C5CCC(=O)N(C)C5=O)CC4)CC3)cc2cc1NC(=O)c1cccc(C(F)(F)F)n1 (stereo partly shown)
5. Cn1c(=O)n(C2CCC(=O)NC2=O)c2cccc(C3CCN(C(=O)[C@H]4CC[C@H](n5cc6cc(NC(=O)c7cccc(C(F)(F)F)n7)ncc6n5)CC4)CC3)c21 (stereo partly shown)
6. O=C1CCN(c2cncc3c(C4CCN(C[C@H]5CC[C@H](n6cc7cc(NC(=O)c8cccc(C(F)(F)F)n8)ncc7n6)CC5)CC4)cccc23)C(=O)N1

**A:**
50 to 100 nM
10 to 50 nM
< 10 nM
> 200 nM
> 200 nM
10 to 50 nM

# map each compound to its DC50
1. CC(C)Nc1cc(-n2ccc3cc(C#N)cnc32)ncc1C(=O)N[C@H]1CC[C@H](CN2CCC(c3cccc4c(N5CCC(=O)NC5=O)cncc34)CC2)CC1
2. Cc1nc(C(=O)Nc2cc3cn([C@H]4CC[C@H](CN(C)C5CCN(c6cccc7c6n(C)c(=O)n7C6CCC(=O)N(C)C6=O)CC5)CC4)nc3cc2C(C)(C)O)co1 (stereo partly shown)
3. COc1cc2nc([C@H]3CC[C@H](CN(C)CCCNc4cccc5c4C(=O)N(C4CCC(=O)NC4=O)C5=O)CC3)sc2cc1NC(=O)c1cncc(Cl)c1 (stereo partly shown)
4. COc1cc2nn([C@H]3CC[C@H](CN(C)C4CCN(c5cc(C)cc6c5n(C)c(=O)n6C5CCC(=O)NC5=O)CC4)CC3)cc2cc1NC(=O)c1cccc(C(F)(F)F)n1 (stereo partly shown)
5. COc1cc2nn([C@H]3CC[C@H](CN4CCC(c5cccc6c5n(C)c(=O)n6C5CCC(=O)NC5=O)CC4)CC3)cc2cc1NC(=O)c1cnc(OC)c(Cl)c1 (stereo partly shown)
6. O=C1CCN(c2cncc3c(C4CCN(C[C@H]5CC[C@H](n6cc7cc(NC(=O)c8cccc(C(F)(F)F)n8)c(C(F)F)cc7n6)CC5)CC4)cccc23)C(=O)N1

**A:**
["< 10 nM", "> 200 nM", "> 200 nM", "10 to 50 nM", "> 200 nM", "< 10 nM"]

The reported numbers originate from patent US12150995B2.
